Assay: yeast display, Sf9 membrane polyspecificity reagent, FACS + sequencing; frameworks hold sequencing errors
property-label: polyreactivity (PSR sort gate)

sequence-entry	property-label	assay-value
QVHLVESGGGLVQAGGSLRLSCAASGRIFGAYTMGWYRQAPGKERELVAAIAGRTYYADSVKGRFTISRDNAKYTVYLQMNSLKPEETAVYYFADRYKSRNYDYWGQGTQVTVSS	polyreactivity (PSR sort gate)	high polyreactivity
QVQLLESGGGLVQAGGSLRLSCAASGRTFAYNAMAWDRQAPGTERELVADITSGGSTYYADSVKGRFTISRDNAKNTVYLQMNSRKPEDTAVYYCAGYPQFWYWDYNYWGQGTQVTVSS	polyreactivity (PSR sort gate)	high polyreactivity
QVQLQESGGGLVQAGGSLRLSCAVSGTIFFPQDKGWYRQAPGREREYGAAIAEGTSTYYADSVKGRFTISRDNAKNTVYPQMYSLKPEDTEVNYCAAYRSTPQQFLYWGQGTQVTVSS	polyreactivity (PSR sort gate)	high polyreactivity

----------
Experiment: yeast display, Sf9 membrane polyspecificity reagent, FACS + sequencing; frameworks hold sequencing errors
property-label: polyreactivity (PSR sort gate)

sequence-entry	property-label	assay-value
QVQLVESGGGLVQAGGSLSLSCAASGYTFSYYAMGWYRQAPGKERELVARITYSGGSTYYADSVKGRFTISRDNAKNTGYLQIKSLKPEDTAVYYCAARLRYPYWYYYWGQGTQVTVSS	polyreactivity (PSR sort gate)	high polyreactivity
QVQLVESGGGLVHAGGSLRLSCAASGYTFPLYAMGWYRQAPGKERELVAGINWRGGSTYYADSVKCRFTISRDNAKNTVYLQIKSLKPEDTAVYYCAADFSRYYTGGYDYWGQGTQVTVSS	polyreactivity (PSR sort gate)	low polyreactivity
QVQLVESGGGLVQAGGSLRLSCAASGFTFAYYAMGWYRQAPGKERELVAAISYSGGSTYYADSVKGRFTISRDNAKNTVYLQMNSLKPEDTAVYYCAAEAGRRYNWGYDYWGQGTQVTVSS	polyreactivity (PSR sort gate)	high polyreactivity
QVQLQESGGGLVQACGSLRLSCAASGYIFSHQYMGLYRQAPGKERELVASISPGATTNYADSVKGRLTISRDNAKNTVYLQMNSLKPEDTAVYYYAVYQILDRRLSYWGQGTQVTVSC	polyreactivity (PSR sort gate)	high polyreactivity
QVQLVESGGGLVQVGGSLRLSCAASGSILTDYGMGWNRPAPGKERELVAVIDFSSGSTYYADSVKGRFTISRDNAKNTVYLQMNSLKPEDTAVYYCAAGPDPLGEDYWGQGTQVTVSS	polyreactivity (PSR sort gate)	low polyreactivity

----------
Assay: yeast display, Sf9 membrane polyspecificity reagent, FACS + sequencing; frameworks hold sequencing errors

sequence-entry	polyreactivity (PSR sort gate)
QDQLVESGGGLVQAGGSLRLICAASARTFSHYPLGWYRQAAGKERELVATITRNGRITYYADSVKGRFTISRDNAKYTVYFQMNSLKPEDTAVYYFNKRWGGPIQFDYWGPGTQVTVSS	low polyreactivity
QVQLVESGGGLVQAGGSLRLSCAASGSTFRPYAMGWYRQAPGKERELVAAISSGDSTYYADSVKGRFTISRDNAKNTVYLQMNSPKREDTAVYYCAKRNYWHRGGGYWGQGTQVTVSS	high polyreactivity
QVQLVESGGGLVQAGGSHRLSCAASGRTFYTNAMGWYRQEPGKERELVARIRRGGTTNYADSVKGRFTISRDNAKNTVYLQMNILKPEDTAVSYCNARRHGGVQPFYFYRNQYELDYWGLGTQVTVSS	high polyreactivity
QVQLVESGGGLVQAGGSLRLSCAASGLIFSRYAMGWYRQAPGKERELVAVISWSGGRTYYSDSVKGRFTISRDNAKNTVYLQMNSLQPEDTAVYYCAADYKSGGSRYDYWGQGTQVTVSS	high polyreactivity
QVQLVESGGGLDQAGGSLRLTCAASGSTFRVYAKGSYSQAPRKERELGAAISRSGGSTTDYADSVKGRFTISRENAKNTVYLQINSLNPEDTAVYFCSDRDYKVQKIYDYWGLGTQVTVSS	low polyreactivity
QVQLVESGGGLVQAGGSLRLSCAASGLTFSKYVMGWYIQAPGKERELVAAITWSGGRTYYADSVKGRFTISRDNAKNTVYLQMNSLKPEDTAVYYCNRKLKGLGYEYDYWGQGTQVTVSS	high polyreactivity
QVQLVESGGGLVQAGGSLRLSCAASGFIVNVYAMVWYRQAPGKERELVAAISTSGSNTYYADSVKGRFTISLDNAKNTVYLQMNSLKPEDTAVYYCNAVRDRVRWHYYAVYYWGQGTQVTVSS	high polyreactivity
QVQLVESGGGLVQAGGSLRLSCAASGFTFYGYAMAWYRQAPGTERELVAAITRRGGNTYYADSVKGRFTISRDNAKNTVYLQMNSLKPEDTAVYYCNAVLRYGHGPYQKGDYWGQGSQVTVSS	high polyreactivity
QVQHVESGGGLVQEGGRLRLSCAASGITFGANTMGWSRQAPGKERELVAAITISGGITHYADSVKGRFTISRDNAKNTVYLQMNSLKPEDTAVYYCAAGAYWRLYPYRLRNVGRMYYWGQGTQVTVSS	low polyreactivity
QVQLVESGGGLVQAGGSLRLSCAASGFTFQVYAMGWYRQAPGKERELVADITESGDSTYYADSVKGRFTISRDNAKNTVYLQMNSLKPEDTAVYYCAADGGWFWSLFYTFAFDYWGQGTQVTVSS	low polyreactivity
QVQLVESGGGLVQAGGSLRLSCAASGSTFSRNAMGWYRPAPGKERELVAAISSSGGRTYYADSVKGRFTISRDNAKNTVYLQMNSLKPQDTAVYYCAADWWRVEMDYWGQGTQVTVSS	low polyreactivity

----------
Test: yeast display, Sf9 membrane polyspecificity reagent, FACS + sequencing; frameworks hold sequencing errors

sequence-entry	polyreactivity (PSR sort gate)
QVQLVESGGGLVQAGGRLRLSCAASGGIFESYAMGWYRQAPGKERELVATITGSGGNTYYADSVKGRFTISRDNAKNTVYLQMNSLKPEDTAVYYCAADTYITPHYLPLLYFLMEYWGQGTQVTVSS	low polyreactivity
QVQLVESGGGLVQAGGSLRLSCAASGRIFTYYDMGWYREAPGKERELVAAITWGGGSTYYADSVKGRFTISRDNAKNSVYLQMNSLKPEDSAVYYCATLYYTFVWRHDYWGQGTQVTVSS	low polyreactivity
QVQLVESGGGLVQAGGSLRLSCAASGRIFWVYAMGWYRQAPGKERELVAAISLSGGLTYYADSVKGRFTITRDNAKNTVYLQMNSLKPEDTAVYYCNAVYPKRGGGRIVDYWGEGTQVTVSS	high polyreactivity
QVQLVESGGGLVQAGGSLRLSCDASGSIFDLNAMGWYRQAPGKERELVAAISSGGGTNYADSVKGRFTISRDNAKNTVYLQMYSLKPEDTAVYYCAVGSTRDGVYLGQGTQVTVSS	high polyreactivity
QVQLEESGGGLVQAGGSLRLSCAASGSTLNRYPMGWNRHATGKERELVATIRWSGGSTYYADSVKPRFTISRYNEKHTVDLQMNSLKAEDTAVYYCAPDRYYYRGRYYGYTREFDYWGQGTHVTVSS	high polyreactivity
QVQLVESGGGLVQAGGSLRLSCAASGSTFYVNDMGWYRQAPGKERELVATISSGSSTYYADSVKGRFTISRDNAKNTVYLQMNSLKPEDTAVYYCAADGVAEEGFDARYDYWGQGTQVTVSS	low polyreactivity
QVQLVESGGGLVQAGGSLRLSCAASGRVYAMGWYRQAPGKERELVAAISRNGGSTYYADSVKGRFTISRDNAKNNVYLQMNSLKPEDTAVYYCNKYSGYKGTDGGDYWGQGTQVTVSS	low polyreactivity
QVQLVESGGGLVQAGGSLRLSCAASGRIFYAYAKGWYRPAPGKEREVVAAITRGGSTYYADSVKGRFTISRDNAKNTVYLQLNCLKREDTAVYSWAAQGYAPPLGESLGYWGEGTQVTVSS	low polyreactivity
QVQLVESGGGLVQAGGSLRLSCAASGITFVSYAMGWYRQAPGKERELVAAISSWSGGTTYYADSVKGRFTISRDNAKNTVYLQMNSLKPEDTAVYYCAAVSFGSYRLGYWGQGTQVTVSS	high polyreactivity
QVQLVESGGGLVQAGGSLRLSCAASGIIVSYYAMGWYRQAPGKERELVAAITSGGSTNYADSVKGRFTISRDNAKITVYLQMNSLKPEDTAVYYCAAERGDTAYRKYDYWGQGTQVTVSS	low polyreactivity
QVQLVESGGGLVQAGGSLRLSCAASGFTFISKAMGWYRQAPGKERELVAAISSSGGRTYYADSVKGRFTISRDHAKYTVYLQMNSLKPEDTALYYCNADRSLLYSRKIEYDYWGQGTQVTVSS	low polyreactivity

----------
Assay: yeast display, Sf9 membrane polyspecificity reagent, FACS + sequencing; frameworks hold sequencing errors

sequence-entry	polyreactivity (PSR sort gate)
QVQLEESGGGLVQAGGSLRLSCAASGSTFDRYGMGWYRQAHWKERELVAAINSGDITNYADSVKGRFTISRDNAKNTVYLQMNSLKPEDTAVYYCAATQSRYYSDDPYYYWGQGTQVTVSS	low polyreactivity
QVQLVESGVGLVQAGGSLRLSCAASGRIFIDYAMGWYRQAPGKERELVATISESGGSTYYADSVKGRFTISRDNAKNTVYLQMNSLKPEDTAVYYCAVDDRYGTVYFYTKFDYWGQGTQVTVSS	low polyreactivity
QVQLVESGGGLVQAGGSLRLSCAASGRIFYIYAKGWYRPAPGKERELVAASTNGGSTNYAHSVKGRFTISRDNAKNTVYLQMNSLKPEDTEVYYCATDYVGYSFGMYYWGEGTQVTVSS	low polyreactivity
QVQLVESGGGLVQGGGSLRLSCAASGRIFKYYAMGWYRQAPGKERELVADISWRGGSTYYADSVKGRFTISRDNAKNTVYLQMNCLKPEDTAVYYCNAVSPRPGFDWGQGTQVTVSS	high polyreactivity
QVQLQESGGGLVQAGGSLRMSCAASGTIVSEANMGWYRQAPGKERELVATIGQGSTTNYADSVKGRFTISRDNAKNTVYLQMNSLKPEETAVYYCAVVTVDPVGFVYWGQGTQVTVSS	low polyreactivity
QVQLVESGGGLVQAGGSLRLSCAASGSISGINAMGWYRQAPGKERELVAAISRRAGSTYYADSVKGRFTISRDNAKNTVYLQMNSLKPEDTAVYYCAAENFYPYTYYASDYWGQGTQVTVSS	high polyreactivity
QVQHVESGGGLVQAGVSLRLSCAASGSTITYNAMGWYRQAPGKERELVAAITVSDGSTYYADSVKGRFTISRDNAKNTVYLQMNSLKPEDTAVYYCNAYAVYLRYLWYDYWGQGTQVTVSS	low polyreactivity
QVQLVESGGGLVQAGGSLRLSCAASGSTFAYYAMGWYRQAPGKEREFVAAISTRGGSTYYADSVKGRFTISRDNAKNTLYLQMNSLKPEDTAVYYCAAGYFNYSWRIRFDYWGQGTQVTVSS	high polyreactivity
QVQLVESGGGLVQAGGSLRLSCAASGSTFGFNGMGWYRQAPGKERELVAAIRSSGGSTYYADSVKGRFTISRDNAKNTVYLQMNSLKPEDTAVYYCAADYYTYGFANWYLWYDYWGQGTQVTVSS	high polyreactivity
QVQLVESGGGLVQAGGSLRISCAASGIIFDTNAMGWYRQAPGKERELVATITQRGGTTYYADSVKGRFTISRDNAKNTVYLQMNSLKPEDTAVYYCAKDYWFGYEYWGQGTQVTVSS	low polyreactivity
QVQLVESGGGLVQAGGSLRLSCAASGSTFRGYAMGWYRQATGKERELVAAISSSGGRTYYADSVKGRFTISRDNAKNPVYLQMNSLKREDTAVYYCNAASKNSVRYAYQNYDYRGQGTQVTVSS	high polyreactivity
